- assay-target: UniProtKB P51449
- Sequence (P51449 269-508 limits assumed): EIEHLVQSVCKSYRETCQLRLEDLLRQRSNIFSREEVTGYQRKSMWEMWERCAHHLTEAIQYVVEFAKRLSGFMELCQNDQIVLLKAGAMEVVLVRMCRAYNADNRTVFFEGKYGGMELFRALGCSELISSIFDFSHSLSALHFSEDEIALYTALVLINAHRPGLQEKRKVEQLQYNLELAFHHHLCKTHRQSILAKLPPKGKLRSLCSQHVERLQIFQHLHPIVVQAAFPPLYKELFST
endpoint-name: IC50 (nM)

In [3]: df
Out[3]:
                                   molecule      assay_target  unit_tag  test_value
0  C[C@H]1CC[C@H](c2ccccc2)S(=O)(=O)N1Cc1cc(F)c(C2(OCC(N)=O)CC3(COC3)C2)cc1F [Compound 12]  UniProtKB P51449        nM         2.3

[a] C=CCOC1(c2cc(F)c(CN3[C@@H](C)CC[C@H](c4ccccc4)S3(=O)=O)cc2F)CC2(COC2)C1 [Compound 14]
[b] CN/C(=C\C#N)NC(C)c1cc(F)c(CN2[C@@H](C)CC[C@H](c3ccccc3)S2(=O)=O)cc1F (some centres unmarked) [Compound 45, formic acid]
[c] CC(NC(=O)Cc1cnoc1)c1cc(F)c(CN2[C@@H](C)CC[C@H](c3ccccc3)S2(=O)=O)cc1F (some centres unmarked) [Compound 52]
[d] Cc1cc(C(=O)NC(C)c2cc(F)c(CN3[C@@H](C)CC[C@H](c4ccccc4)S3(=O)=O)cc2F)no1 (stereo in doubt) [Compound 51]
[in] # rank by IC50, ascending (min first) I'd appreciate it if you listed the labels in the requested order.
[out] a, d, c, b
(a: 2.2 nM, d: 7 nM, c: 101 nM, b: 695 nM)
